# Test system: RPMI-8226 leukemia
# protocol-notes: NCI-60 one-dose screen, 48 h
# protocol-conditions: 10 µM unless noted
Compounds without any hit were thinned out: in the full panel of roughly 83,000, 20% have a hit. The source made the active and inactive calls. The calls were made as follows: active = growth percent below 10; inactive = the rest.
Please answer using one outcome listed in t for active, f for inactive

Sample answers from the record:
Called result for `Cc1ccc(Cc2cnc(NC(=O)c3ccc4noc(-c5ccccc5)c4c3)s2)cc1` f

Let us now turn to `COc1cc(N2C(=O)c3nccnc3C2=O)cc(OC)c1OC` f

Let us now turn to `Cc1ccc(S(=O)(=O)NCC[C@@H]2C[C@H]2c2cc3ccccc3s2)cc1` f

Shifting focus to the molecule that follows.
Called result for `C=C(C)[C@@H]1CC=C2c3sc(-c4ccc(C)cc4)nc3C[C@@H](C)[C@]2(C)C1` f

Values compiled from PubChem BioAssay (NCI).
